Measured values drawn from patent US20110130365A1 for this set.

assayedSystem: Full-length glucokinase (beta cell isoform) (Homo sapiens, UniProt P35557)
Construct: Full-length glucokinase (beta cell isoform) was His-tagged at N-terminus; His tag (N)
Sequence (P35557 whole entry, canonical isoform): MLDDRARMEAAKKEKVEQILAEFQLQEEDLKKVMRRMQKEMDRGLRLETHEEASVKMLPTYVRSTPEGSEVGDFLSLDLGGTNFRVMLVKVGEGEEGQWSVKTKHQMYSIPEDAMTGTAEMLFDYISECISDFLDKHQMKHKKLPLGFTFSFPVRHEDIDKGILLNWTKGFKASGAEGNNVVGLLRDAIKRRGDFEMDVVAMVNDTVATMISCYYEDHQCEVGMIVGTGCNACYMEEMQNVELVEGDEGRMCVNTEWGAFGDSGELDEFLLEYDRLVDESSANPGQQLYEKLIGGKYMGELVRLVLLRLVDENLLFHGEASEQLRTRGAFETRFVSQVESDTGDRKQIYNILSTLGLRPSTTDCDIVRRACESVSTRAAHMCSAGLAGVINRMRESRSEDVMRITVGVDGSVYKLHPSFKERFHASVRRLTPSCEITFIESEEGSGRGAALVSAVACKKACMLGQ
procedureText: Glucokinase activation assay (PK/LDH-coupled, NADH depletion at 340 nm)
conditions: 5 mM glucose, 2.5 mM ATP, pH 7.1, room temperature; values given as a range where N>1
valueType: EC50

Take a look at these entries with their results.
chemicalString	assayedSystem	reportedResult
O=C(O)c1ccc(NC(=O)[C@H](CC2CCCCC2)n2ccc(C(F)(F)F)cc2=O)nc1	Full-length glucokinase (beta cell isoform) (Homo sapiens, UniProt P35557)	1.5 to 3.5 µM
O=C(Nc1ccn(Cc2ccccc2)n1)[C@H](CC1CCCC1)n1cc(C(F)(F)F)ccc1=O	Full-length glucokinase (beta cell isoform) (Homo sapiens, UniProt P35557)	0.7 to 1.3 µM
Cc1ccc(NC(=O)[C@H](CC2CCCC2)n2cccc(C(F)(F)F)c2=O)nc1	Full-length glucokinase (beta cell isoform) (Homo sapiens, UniProt P35557)	> 100 µM
Cn1ccc(NC(=O)[C@H](CC2CCOCC2)n2ccc(C(F)(F)F)cc2=O)n1	Full-length glucokinase (beta cell isoform) (Homo sapiens, UniProt P35557)	> 100 µM
Cc1ccc(NC(=O)[C@H](CC2CCOCC2)n2cc(C(F)(F)F)ccc2=O)nc1	Full-length glucokinase (beta cell isoform) (Homo sapiens, UniProt P35557)	2.9 to 4.6 µM
Cc1cnc(NC(=O)[C@H](CC2CCCC2)n2ccc(C(F)(F)F)cc2=O)cn1	Full-length glucokinase (beta cell isoform) (Homo sapiens, UniProt P35557)	5 to 10.5 µM

# context switch: different molecule, same EC50
Query :: Query EC50 for O=C(Nc1cnccn1)[C@H](CC1CCCC1)n1cc(C(F)(F)F)ccc1=O
Result :: 1.7 to 3.2 µM

----------
assayedSystem: Full-length glucokinase (beta cell isoform) (Homo sapiens, UniProt P35557)
Construct: Full-length glucokinase (beta cell isoform) was His-tagged at N-terminus; His tag (N); made in house
procedureText: Glucokinase activation assay (PK/LDH-coupled, NADH depletion at 340 nm)
Type: biochemical
conditions: 5 mM glucose, 2.5 mM ATP, pH 7.1, room temperature; fitted % max activation; values given as a range where N>1; read-out: Maximum Activation
valueType: Emax

Query :: Query Emax for Cc1ccc(NC(=O)[C@H](CC2CCCC2)n2cc(C(F)(F)F)ccc2=O)nc1 [Example 6]
Result :: 88 to 105%

Query :: Query Emax for O=C(O)c1ccc(NC(=O)[C@H](CC2CCCCC2)n2ccc(C(F)(F)F)cc2=O)nc1 [Example 37]
Result :: 92 to 101%

Query :: Query Emax for Cc1cnc(NC(=O)[C@H](CC2CCCC2)n2cc(C(F)(F)F)ccc2=O)cn1 [Example 7]
Result :: 118 to 152%

Query :: Query Emax for CCn1ccc(NC(=O)[C@H](CC2CCCC2)n2cc(C(F)(F)F)ccc2=O)n1 [Example 10]
Result :: 121 to 148%

Query :: Query Emax for O=C(Nc1ccncn1)[C@H](CC1CCCC1)n1cc(C(F)(F)F)ccc1=O [Example 9]
Result :: 95 to 106%

Query :: Query Emax for O=C(Nc1ccn(Cc2ccccc2)n1)[C@H](CC1CCCC1)n1cc(C(F)(F)F)ccc1=O [Example 11]
Result :: 108 to 141%

Query :: Query Emax for Cc1ccc(NC(=O)[C@H](CC2CCCC2)n2ccc(C(F)(F)F)cc2=O)nc1 [Example 3]
Result :: 55 to 79%

Query :: Query Emax for O=C(O)c1ccc(NC(=O)[C@H](CC2CCCC2)n2ccc(C(F)(F)F)cc2=O)nc1 [Example 34]
Result :: 100 to 102%

Query :: Query Emax for Cc1ccc(NC(=O)[C@H](CC2CCOCC2)n2cc(C(F)(F)F)ccc2=O)nc1 [Example 38]
Result :: 57 to 70%
